target: CTX-M-15 (Escherichia coli); assay: Ki app determination (Waley's method)
Sequence (Q9EXV5 29-291, species assumed): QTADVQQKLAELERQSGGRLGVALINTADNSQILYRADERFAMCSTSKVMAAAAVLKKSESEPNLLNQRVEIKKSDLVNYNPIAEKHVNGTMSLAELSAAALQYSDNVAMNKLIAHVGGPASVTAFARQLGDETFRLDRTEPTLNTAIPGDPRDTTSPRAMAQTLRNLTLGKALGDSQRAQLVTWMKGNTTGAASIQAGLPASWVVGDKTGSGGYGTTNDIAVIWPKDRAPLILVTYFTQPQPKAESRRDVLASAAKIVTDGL
pKi: −log10 of the molar value.
Recorded pKi by entry

| structure | pKi |
| --- | --- |
| O=C(O)C[C@@H]1CC[C@H](NC(=O)Cc2cccs2)B(O)O1 | 7.11 |
| O=C(NC1CCNCC1)[C@@H]1CC[C@@H]2CN1C(=O)N2OS(=O)(=O)O | 9.08 |
| N[C@@H](C(=O)N1CC(Oc2ccc3c(c2C(=O)O)OB(O)CC3)C1)c1c[nH]cn1 | 10.18 |
| C[C@]1(Cn2ccnn2)[C@H](C(=O)O)N2C(=O)C[C@H]2S1(=O)=O | 10.41 |
| NC(=O)[C@@H]1CC[C@@H]2CN1C(=O)N2OS(=O)(=O)O | 9.43 |

* * *

test system: 207 Enterobacterales including carbapenem-resistant isolates; assay: MIC, broth microdilution; type: cell-based; conditions: read-out: MIC90
Items are presented alongside their recorded MIC90.

| structure | value-unit | qual | MIC90 |
| --- | --- | --- | --- |
| NCC[C@H](O)C(=O)N[C@@H]1C[C@H](N)[C@@H](O[C@H]2O[C@H](CN)[C@@H](O)[C@H](O)[C@H]2O)[C@H](O)[C@H]1O[C@H]1O[C@H](CO)[C@@H](O)[C@H](N)[C@H]1O | µg/mL | > | 64 |
| CC(C)(O/N=C(\C(=O)N[C@@H]1C(=O)N2C(C(=O)[O-])=C(C[N+]3(CCNC(=O)c4ccc(O)c(O)c4Cl)CCCC3)CS[C@H]12)c1csc(N)n1)C(=O)O | µg/mL | = | 2 |
| C[C@@H](O)[C@H]1C(=O)N2C(C(=O)O)=C(S[C@@H]3CN[C@H](C(=O)N(C)C)C3)[C@H](C)[C@H]12 | µg/mL | = | 32 |
| O=C(O)c1cn(C2CC2)c2cc(N3CCNCC3)c(F)cc2c1=O | µg/mL | > | 64 |
| C[C@H]1COc2c(N3CCN(C)CC3)c(F)cc3c(=O)c(C(=O)O)cn1c23 | µg/mL | = | 64 |
| CN(C)c1cc(NC(=O)CNC(C)(C)C)c(O)c2c1C[C@H]1C[C@H]3[C@H](N(C)C)C(O)=C(C(N)=O)C(=O)[C@@]3(O)C(O)=C1C2=O | µg/mL | = | 2 |
| CC(C)(O/N=C(\C(=O)N[C@@H]1C(=O)N2C(C(=O)[O-])=C(C[n+]3ccccc3)CS[C@H]12)c1csc(N)n1)C(=O)O | µg/mL | > | 32 |

* * *

target: SHV-2 (Klebsiella pneumoniae); assay: Ki app determination (Waley's method); settings: read-out: Ki app; SHV-2; means from three independent studies
Sequence (P0A9Z8 22-286): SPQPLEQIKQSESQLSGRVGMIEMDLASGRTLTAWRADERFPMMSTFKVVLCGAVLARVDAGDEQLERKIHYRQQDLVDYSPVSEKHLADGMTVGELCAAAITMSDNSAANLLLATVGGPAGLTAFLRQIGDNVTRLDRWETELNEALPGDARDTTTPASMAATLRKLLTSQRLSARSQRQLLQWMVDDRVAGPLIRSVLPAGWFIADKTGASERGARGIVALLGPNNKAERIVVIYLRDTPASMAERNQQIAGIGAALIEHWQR
pKi: −log10 of the molar value.

| structure | pKi |
| --- | --- |
| NCCN[C@H]1CC[C@H](CC(=O)N[C@H]2Cc3cccc(C(=O)O)c3OB2O)CC1 | 7.70 |

* * *

tested on: 55 isolates of A. baumannii; experiment: MIC, broth microdilution; format: cell-based, Acinetobacter baumannii; settings: Acinetobacter baumannii (55); CLSI breakpoints; marked c: breakpoints for β-lactam alone
Readings of CLSI MIC interpretation I (intermediate) for the listed compounds
attribute-measured: CLSI MIC interpretation I (intermediate)

| compound | attribute-measured | result |
| --- | --- | --- |
| NCC[C@H](O)C(=O)N[C@@H]1C[C@H](N)[C@@H](O[C@H]2O[C@H](CN)[C@@H](O)[C@H](O)[C@H]2O)[C@H](O)[C@H]1O[C@H]1O[C@H](CO)[C@@H](O)[C@H](N)[C@H]1O [Amikacin] | CLSI MIC interpretation I (intermediate) | 14.5% |
| C[C@@H](O)[C@H]1C(=O)N2C(C(=O)O)=C(S[C@@H]3CN[C@H](C(=O)N(C)C)C3)[C@H](C)[C@H]12 [MEM, meropenem] | CLSI MIC interpretation I (intermediate) | 5.5% |
| C[C@@H](O)[C@H]1C(=O)N2C(C(=O)O)=C(SCCN=CN)C[C@H]12 [Imipenem] | CLSI MIC interpretation I (intermediate) | 3.6% |
